The values you see were collected from patent US20240059799A1.

Target: T1, recombinant human TL1A (human, UniProt O95150 71-251)
T1 chain: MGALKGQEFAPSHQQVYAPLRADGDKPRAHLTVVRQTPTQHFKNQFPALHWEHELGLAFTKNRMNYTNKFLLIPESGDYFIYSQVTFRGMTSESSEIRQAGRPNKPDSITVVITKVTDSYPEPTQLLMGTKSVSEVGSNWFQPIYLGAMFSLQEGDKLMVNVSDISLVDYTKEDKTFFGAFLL
Assay: cell-based or functional assay
recorded-metric: Whole blood IFNγ assay IC50 (nM)
One number for each entry, in nM.

Here is how some binders turned out for Whole blood IFNγ assay IC50.
Q: Annotate the binder TL1A-0291 (antibody, human IgG1, kappa, V domains shown, human IgG1 effector-function-minimized/kappa) VH: QVQLVQSGAEVKKPGASVKVSCKASGYDFTYYGVSWVRQAPGQGLEWMGWISTYNTGTHYAQKLQGRVTMTTDTSTSTAYMELRSLRSDDTAVYYCARESYYGSGAHRGGMDVWGQGTTVTVSS VL: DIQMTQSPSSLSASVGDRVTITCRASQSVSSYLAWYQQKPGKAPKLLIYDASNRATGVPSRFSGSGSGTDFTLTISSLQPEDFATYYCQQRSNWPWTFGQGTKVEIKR with its measured Whole blood IFNγ assay IC50.
Ans: 0.929

Q: Annotate the binder TL1A-0260 (antibody, human IgG1, kappa, V domains shown, human IgG1 effector-function-minimized/kappa; also called bio-TL1A-0260 (biotinylated reporter)) VH: QVQLVQSGAEVKKPGASVKVSCKASGYDYTYYGISWVRQAPGQGLEWMGWISTYNTGTHYAPSLQGRVTMTTDTSTSTAYMELRSLRSDDTAVYYCARESYYGSGAFRGGMDVWGQGTTVTVSS VL: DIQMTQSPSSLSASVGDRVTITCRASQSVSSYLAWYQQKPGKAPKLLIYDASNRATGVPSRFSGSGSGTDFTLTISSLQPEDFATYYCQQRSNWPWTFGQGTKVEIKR with its measured Whole blood IFNγ assay IC50.
Ans: 0.755

Q: Annotate the binder TL1A-0285 (antibody, human IgG1, kappa, V domains shown, human IgG1 effector-function-minimized/kappa) VH: QVQLVQSGAEVKKPGASVKVSCKASGYDFTYYGVSWVRQAPGQGLEWMGWISTYNDNTHYAPSLQGRVTMTTDTSTSTAYMELRSLRSDDTAVYYCARESYYGSGAHRGGMDVWGQGTTVTVSS VL: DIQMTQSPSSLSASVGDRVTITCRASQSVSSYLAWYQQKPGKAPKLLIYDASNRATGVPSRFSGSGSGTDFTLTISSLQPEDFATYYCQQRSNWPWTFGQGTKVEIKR with its measured Whole blood IFNγ assay IC50.
Ans: 0.955

Q: Annotate the binder TL1A-0265 (antibody, human IgG1, kappa, V domains shown, human IgG1 effector-function-minimized/kappa) VH: QVQLVQSGAEVKKPGASVKVSCKASGYDYTYYGISWVRQAPGQGLEWMGWISTYNTVTHYAPSLQGRVTMTTDTSTSTAYMELRSLRSDDTAVYYCARESYYGSGAHRGGMDVWGQGTTVTVSS VL: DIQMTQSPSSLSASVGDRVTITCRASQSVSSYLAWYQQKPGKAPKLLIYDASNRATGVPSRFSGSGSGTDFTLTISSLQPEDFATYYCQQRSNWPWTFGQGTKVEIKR with its measured Whole blood IFNγ assay IC50.
Ans: 1.01

Okay, now this binder:
Q: Annotate the binder TL1A-0264 (antibody, human IgG1, kappa, V domains shown, human IgG1 effector-function-minimized/kappa) VH: QVQLVQSGAEVKKPGASVKVSCKASGYDYTYYGISWVRQAPGQGLEWMGWISTYNTVTHYAPSLQGRVTMTTDTSTSTAYMELRSLRSDDTAVYYCARESYYGSGAFRGGMDVWGQGTTVTVSS VL: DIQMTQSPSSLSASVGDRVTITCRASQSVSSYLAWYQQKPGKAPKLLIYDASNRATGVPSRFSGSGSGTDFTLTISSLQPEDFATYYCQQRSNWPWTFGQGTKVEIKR with its measured Whole blood IFNγ assay IC50.
Ans: 1.06
